Molecular target: CYP3A4 (Homo sapiens, UniProt P08684)
Construct: from tissue; host or cells: human liver microsomes
Sequence (P08684 whole entry): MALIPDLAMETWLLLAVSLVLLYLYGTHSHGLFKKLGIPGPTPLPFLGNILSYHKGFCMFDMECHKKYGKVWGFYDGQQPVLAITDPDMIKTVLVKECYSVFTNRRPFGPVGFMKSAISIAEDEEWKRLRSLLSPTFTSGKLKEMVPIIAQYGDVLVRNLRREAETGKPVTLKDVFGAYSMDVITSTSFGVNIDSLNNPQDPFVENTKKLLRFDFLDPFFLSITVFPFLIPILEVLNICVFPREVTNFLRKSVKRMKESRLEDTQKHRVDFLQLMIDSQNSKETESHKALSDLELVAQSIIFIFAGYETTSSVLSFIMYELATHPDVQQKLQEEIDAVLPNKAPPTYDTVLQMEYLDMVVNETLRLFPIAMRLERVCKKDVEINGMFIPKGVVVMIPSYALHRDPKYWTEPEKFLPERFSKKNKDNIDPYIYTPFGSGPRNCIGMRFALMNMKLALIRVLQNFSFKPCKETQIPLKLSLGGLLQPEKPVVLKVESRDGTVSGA
Test: Cytochrome P450 inhibition using human liver microsomes, CYP3A4
Format: in vitro ADME
Conditions: read-out: CYP 450 IC50, 3A4
pIC50: −log10 of the molar value.
A collection of compounds and their measured pIC50

| compound | val |
| --- | --- |
| Cc1csc(NC(=O)c2cc(O[C@@H]3CCOC3)c3sccc3n2)n1 [19aA] | < 4.52 |

Pending compound:
Value of measured pIC50 for the entry Cc1csc(NC(=O)c2cc(O[C@@H]3CCOC3)cc(F)c2F)n1 [27cA] : < 4.52

* * *

Assay: Intrinsic clearance in human liver microsomes
Assay type: in vitro ADME
Conditions: pH 7.4; human liver microsomes
readout.label: CLint scaled at 0.75 h, 1 µM (mL/min/kg)

(I) Cc1csc(NC(=O)c2cc(O[C@@H]3CCOC3)cc(F)c2F)n1 [27cA]
(II) Cc1csc(NC(=O)c2cc(O[C@@H]3CCOC3)c3sccc3n2)n1 [19aA]
Q: Kindly identify the item with the lower CLint scaled at 0.75 h, 1 µM figure among these two: I and II Reply with the label of the item you choose.
Result: II

* * *

Biological target: human mGlu5 (Homo sapiens)
Construct: expressed in transfected cells
Sequence (P41594 21-1212): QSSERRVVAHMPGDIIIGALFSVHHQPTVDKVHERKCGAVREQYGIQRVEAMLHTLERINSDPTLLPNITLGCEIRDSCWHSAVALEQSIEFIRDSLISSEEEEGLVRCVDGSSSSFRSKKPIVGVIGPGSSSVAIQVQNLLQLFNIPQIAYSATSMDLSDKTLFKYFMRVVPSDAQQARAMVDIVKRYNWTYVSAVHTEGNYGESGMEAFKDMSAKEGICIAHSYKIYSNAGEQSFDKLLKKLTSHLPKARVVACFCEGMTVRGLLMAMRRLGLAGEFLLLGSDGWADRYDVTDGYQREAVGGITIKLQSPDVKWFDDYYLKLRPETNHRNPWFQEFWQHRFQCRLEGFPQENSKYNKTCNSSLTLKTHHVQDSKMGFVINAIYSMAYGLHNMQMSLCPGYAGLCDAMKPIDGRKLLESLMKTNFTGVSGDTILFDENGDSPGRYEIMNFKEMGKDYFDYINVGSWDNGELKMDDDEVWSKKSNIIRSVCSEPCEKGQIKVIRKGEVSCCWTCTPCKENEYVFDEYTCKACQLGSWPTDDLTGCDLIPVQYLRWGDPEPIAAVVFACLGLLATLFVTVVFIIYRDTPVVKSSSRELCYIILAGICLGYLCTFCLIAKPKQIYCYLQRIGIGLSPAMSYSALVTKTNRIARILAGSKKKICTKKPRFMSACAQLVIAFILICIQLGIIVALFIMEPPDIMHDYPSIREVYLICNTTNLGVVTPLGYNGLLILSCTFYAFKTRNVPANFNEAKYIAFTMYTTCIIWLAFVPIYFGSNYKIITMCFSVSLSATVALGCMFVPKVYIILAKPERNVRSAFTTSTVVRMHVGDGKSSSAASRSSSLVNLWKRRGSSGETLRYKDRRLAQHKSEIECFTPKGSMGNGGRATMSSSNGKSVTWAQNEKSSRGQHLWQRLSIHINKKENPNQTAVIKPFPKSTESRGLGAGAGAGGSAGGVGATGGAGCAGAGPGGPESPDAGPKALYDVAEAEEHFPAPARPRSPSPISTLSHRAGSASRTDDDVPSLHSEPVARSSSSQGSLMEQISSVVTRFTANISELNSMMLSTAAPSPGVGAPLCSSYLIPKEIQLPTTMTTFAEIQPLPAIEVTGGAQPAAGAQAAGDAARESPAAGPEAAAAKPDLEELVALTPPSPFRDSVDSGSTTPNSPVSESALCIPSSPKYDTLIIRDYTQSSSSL
Assay: Calcium mobilization assay in human mGlu5-HEK293A cells (NAM, EC80 glutamate)
Type: cell-based
Settings: human mGlu5-HEK293A cells, EC80 fixed concentration of glutamate, n = 2 in triplicate
readout.label: pIC50

| compound | val |
| --- | --- |
| Cc1csc(NC(=O)c2cc(OC3COC3)c3sccc3n2)n1 [22e] | 6.76 |
| CO[C@@H](C)COc1cc(C(=O)Nc2nc(C)cs2)nc2ccsc12 [22g] | 6.17 |
| O=C(Nc1ccc(F)cn1)c1cc(O[C@@H]2CCOC2)c2sccc2n1 [19aB] | 7.22 |
| O=C(Nc1nc(CF)cs1)c1cc(O[C@@H]2CCOC2)c2sccc2n1 [19aL] | 7.27 |
| O=C(Nc1ccc(F)cn1)c1cc(O[C@@H]2CCOC2)cc(F)c1F [27cB] | 5.88 |
| O=C(Nc1nccs1)c1cc(O[C@@H]2CCOC2)c2sccc2n1 [19aK] | 5.75 |
| CCc1csc(NC(=O)c2cc(O[C@@H]3CCOC3)c3sccc3n2)n1 [19aH] | 5.62 |
| Cc1csc(NC(=O)c2cc(OC3CSC3)c3sccc3n2)n1 [22j] | 6.98 |
| Cn1ccc2c(O[C@@H]3CCOC3)cc(C(=O)Nc3ccc(F)cn3)nc21 [19dB] | 5.98 |
| O=C(Nc1nc(C(F)F)cs1)c1cc(O[C@@H]2CCOC2)c2sccc2n1 [19aM] | 6.50 |

* * *

Assay: Intrinsic clearance in rat liver microsomes
Type: in vitro ADME
Conditions: predicted hepatic clearance from in vitro rat microsomal data
readout.label: rat CLhep (mL/min/kg)

(P) Cc1csc(NC(=O)c2cc(O[C@@H]3CCOC3)cc(F)c2F)n1 [27cA]
(Q) Cc1csc(NC(=O)c2cc(OC3CSC3)c3sccc3n2)n1 [22j]
Q: Kindly identify the item with the lower rat CLhep figure among these two: P and Q Reply with the label of the item you choose.
Result: P

* * *

Assay: Binding in plasma from human (equilibrium dialysis)
Format: in vitro ADME
Conditions: fraction unbound
readout.label: human f u,plasma

Below, each entry is followed by its recorded human f u,plasma result.
| compound | readout.label | val |
| --- | --- | --- |
| O=C(Nc1ccc(F)cn1)c1cc(O[C@@H]2CCOC2)c2sccc2n1 [19aB] | human f u,plasma | 0.008 |
| O=C(Nc1nc(CF)cs1)c1cc(O[C@@H]2CCOC2)c2sccc2n1 [19aL] | human f u,plasma | 0.016 |
| Cc1cccc(NC(=O)c2cc(O[C@@H]3CCOC3)c3sccc3n2)n1 [19aD] | human f u,plasma | 0.005 |
| Cc1csc(NC(=O)c2cc(OC3CC(C#N)C3)c3sccc3n2)n1 (centres unmarked) [22i] | human f u,plasma | 0.005 |

(1) Cc1csc(NC(=O)c2cc(O[C@@H]3CCOC3)c3ccn(C)c3n2)n1 [19dA]
(2) Cc1csc(NC(=O)c2cc(O[C@@H]3CCOC3)c3sccc3n2)n1 [19aA]
(3) Cc1csc(NC(=O)c2cc(OC3CSC3)c3sccc3n2)n1 [22j]
(4) Cc1csc(NC(=O)c2cc(O[C@@H]3CCOC3)cc(F)c2F)n1 [27cA]
Q: Ordering criterion: human f u,plasma; begin with the maximum. API: response body holds the labels in the requested order.
Result: 4, 2, 1, 3

* * *

Assay: Rat IV/PO pharmacokinetics
Type: in vivo, Sprague-Dawley rat
Conditions: plasma, male Sprague-Dawley rats, IV 1 mg/kg, PO 10 mg/kg, read-out: %F (oral bioavailability)
readout.label: bioavailability at 24 h (%)
// note: answer is a bare numeric in %

Value of measured bioavailability at 24 h for the entry Cc1csc(NC(=O)c2cc(O[C@@H]3CCOC3)cc(F)c2F)n1 [27cA] : 16.6

* * *

Experiment: Rat IV/PO pharmacokinetics
Type: in vivo, Sprague-Dawley rat
Conditions: plasma, male Sprague-Dawley rats (n = 2), IV 1 mg/kg, read-out: CLp
Description: (1700 rcf, 5 minutes, 4 °C) to obtain plasma sample. […] All brain and plasma samples were stored at -80 °C until analysis by LC-MS/MS. Male Sprague-Dawley rats were used for discrete pharmacokinetic studies. Compounds in ethanol: PEG400: saline (1:4:5 v/v/v) were administered intra-venously in two rats at 1 mg/kg (IV PK). Two rats were also gavaged at 10 mg/kg with compounds in 10% Tween 80 in water (PO PK). […] The concentration of compounds in plasma was quantified by LC/MS/MS as described below. […]
readout.label: clearance (L/h/kg)

(1) Cc1csc(NC(=O)c2cc(O[C@@H]3CCOC3)c3sccc3n2)n1 [19aA]
(2) Cc1csc(NC(=O)c2cc(O[C@@H]3CCOC3)cc(F)c2F)n1 [27cA]
Q: Hi there! Just curious which has the higher clearance between 1 and 2 . Reply with the label of the item you choose.
Result: 1
(1: 2.96 L/h/kg, 2: 1.88 L/h/kg)

* * *

Molecular target: human mGlu5 (Homo sapiens)
Construct: expressed in transfected cells
Experiment: Calcium mobilization assay in human mGlu5-HEK293A cells (NAM, EC80 glutamate)
Assay type: cell-based
Details: efficacy of the NAM to reduce an EC80 response of glutamate; human mGlu5-HEK293A cells
readout.label: %Glumin (%)

| compound | unit.string | %Glumin |
| --- | --- | --- |
| Cc1csc(NC(=O)c2cc(OC3CCOCC3)c3sccc3n2)n1 [22d] | % | 25 |
| Cn1ccc2c(O[C@@H]3CCOC3)cc(C(=O)Nc3ccc(F)cn3)nc21 [19dB] | % | 12 |
| CCc1csc(NC(=O)c2cc(O[C@@H]3CCOC3)c3sccc3n2)n1 [19aH] | % | 6 |
| Cc1csc(NC(=O)c2cc(OC3COC3)c3sccc3n2)n1 [22e] | % | 2 |
| O=C(Nc1nccs1)c1cc(O[C@@H]2CCOC2)c2sccc2n1 [19aK] | % | 3 |
| Cc1cccc(NC(=O)c2cc(O[C@@H]3CCOC3)c3sccc3n2)c1 [19aE] | % | 2 |

(A) Cc1cccc(NC(=O)c2cc(O[C@@H]3CCOC3)c3sccc3n2)n1 [19aD]
(B) Cc1nsc(NC(=O)c2cc(O[C@@H]3CCOC3)c3sccc3n2)n1 [19aQ]
Q: Kindly identify the item with the lower %Glumin figure among these two: A and B Reply with the label of the item you choose.
Result: A

(P) O=C(Nc1ccc(F)cn1)c1cc(O[C@@H]2CCOC2)cc(F)c1F [27cB]
(Q) Cc1coc(NC(=O)c2cc(O[C@@H]3CCOC3)c3sccc3n2)n1 [19aP]
(R) O=C(Nc1ccc(F)cn1)c1cc(O[C@@H]2CCOC2)c2sccc2n1 [19aB]
Q: Hey, quick one: sort these by %Glumin, low to high? API: response body holds the labels in the requested order.
Result: R, P, Q

* * *

Molecular target: human mGlu5 (Homo sapiens)
Construct: expressed in transfected cells
Experiment: Calcium mobilization assay in human mGlu5-HEK293A cells (NAM, EC80 glutamate)
Assay type: cell-based
Settings: human mGlu5-HEK293A cells, EC80 fixed concentration of glutamate, n = 2 in triplicate
readout.label: pIC50

| molecule | pIC50 |
| --- | --- |
| O=C(Nc1ccc(F)cn1)c1cc(O[C@@H]2CCOC2)c2ccncc2n1 [27gB] | 5.76 |
| Cc1csc(NC(=O)c2cc(O[C@@H]3CCOC3)c3ccn(C)c3n2)n1 [19dA] | 7.04 |
| Cc1csc(NC(=O)c2cc(O[C@@H]3CCOC3)c3sc(C)cc3n2)n1 [19cA] | 6.45 |
| Cc1csc(NC(=O)c2cc(O[C@@H]3CCOC3)c3ccccc3n2)n1 [19fA] | 6.74 |

Data credit: paper PMC12067350
